target: CYP3A4 (Homo sapiens); experiment: P450 inhibition, midazolam hydroxylation; assay type: in vitro ADME; details: probe midazolam
Sequence (P08684 whole entry): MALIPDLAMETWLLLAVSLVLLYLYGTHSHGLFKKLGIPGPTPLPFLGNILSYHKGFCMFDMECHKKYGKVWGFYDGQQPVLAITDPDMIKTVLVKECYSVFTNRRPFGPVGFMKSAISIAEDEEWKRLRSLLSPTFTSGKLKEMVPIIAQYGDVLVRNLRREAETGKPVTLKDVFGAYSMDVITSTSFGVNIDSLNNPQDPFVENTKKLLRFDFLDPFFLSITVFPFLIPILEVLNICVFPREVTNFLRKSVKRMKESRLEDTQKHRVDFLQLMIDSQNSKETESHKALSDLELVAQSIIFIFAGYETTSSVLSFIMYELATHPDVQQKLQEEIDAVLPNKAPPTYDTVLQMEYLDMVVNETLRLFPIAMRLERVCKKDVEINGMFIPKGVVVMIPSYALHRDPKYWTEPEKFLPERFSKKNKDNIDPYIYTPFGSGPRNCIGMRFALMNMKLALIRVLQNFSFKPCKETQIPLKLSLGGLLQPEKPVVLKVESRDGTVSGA
QUANTITY NAME: inhibition at 15 min, 10 µM

[
  {
    "COMPOUND STRING": "N#Cc1cc(-c2ccnc(Nc3ccc(-n4cnc(-c5ccccn5)n4)cc3)n2)cc(N2CCOCC2)c1",
    "inhibition at 15 min, 10 µM": "≤ 33%"
  },
  {
    "COMPOUND STRING": "Cn1nnc(-c2ccc(Nc3nccc(-c4cc(C#N)cc(N5CCOCC5)c4)n3)cc2)n1",
    "inhibition at 15 min, 10 µM": "≤ 15%"
  },
  {
    "COMPOUND STRING": "Cc1ncn(-c2ccc(Nc3nccc(-c4cccc(N5CCOCC5)c4)n3)cc2)n1",
    "inhibition at 15 min, 10 µM": "< 50%"
  }
]

Below: the item to evaluate.
Problem: Look up inhibition at 15 min, 10 µM of Fc1cc(-c2cc[nH]/c(=N/c3ccc(-n4cnc(N5CCOCC5)n4)cc3)n2)cc(N2CCOCC2)c1 and report it.
Solution: 70 to 90%

---

target: CYP2C9 (Homo sapiens); test: P450 inhibition, tolbutamide hydroxylation; format: in vitro ADME; settings: probe tolbutamide
Sequence (P11712 whole entry): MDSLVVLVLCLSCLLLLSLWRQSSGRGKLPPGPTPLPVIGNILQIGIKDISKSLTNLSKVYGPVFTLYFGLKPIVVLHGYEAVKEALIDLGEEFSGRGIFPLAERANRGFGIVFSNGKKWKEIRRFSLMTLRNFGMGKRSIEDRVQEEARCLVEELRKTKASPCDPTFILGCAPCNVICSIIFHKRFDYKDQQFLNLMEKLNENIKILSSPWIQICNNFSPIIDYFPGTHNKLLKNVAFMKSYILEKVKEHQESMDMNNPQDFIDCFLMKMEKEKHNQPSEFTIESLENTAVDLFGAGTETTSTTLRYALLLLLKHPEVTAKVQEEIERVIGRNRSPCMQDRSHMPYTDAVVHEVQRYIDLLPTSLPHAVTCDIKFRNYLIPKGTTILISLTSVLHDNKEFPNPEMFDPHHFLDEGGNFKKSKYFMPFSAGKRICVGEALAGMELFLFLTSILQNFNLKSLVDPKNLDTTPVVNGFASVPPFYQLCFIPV
QUANTITY NAME: inhibition at 15 min, 10 µM

# example entries with known answers
[
  {
    "COMPOUND STRING": "Fc1cc(-c2cc[nH]/c(=N/c3ccc(-n4cnc(N5CCOCC5)n4)cc3)n2)cc(N2CCOCC2)c1",
    "TARGET OR TEST SYSTEM": "CYP2C9 (Homo sapiens)",
    "inhibition at 15 min, 10 µM": "70 to 90%"
  },
  {
    "COMPOUND STRING": "N#Cc1cc(-c2ccnc(Nc3ccc(-n4cnc(-c5ccccn5)n4)cc3)n2)cc(N2CCOCC2)c1",
    "TARGET OR TEST SYSTEM": "CYP2C9 (Homo sapiens)",
    "inhibition at 15 min, 10 µM": "≤ 33%"
  },
  {
    "COMPOUND STRING": "Cn1nnc(-c2ccc(Nc3nccc(-c4cc(C#N)cc(N5CCOCC5)c4)n3)cc2)n1",
    "TARGET OR TEST SYSTEM": "CYP2C9 (Homo sapiens)",
    "inhibition at 15 min, 10 µM": "≤ 15%"
  }
]

Below: the item to evaluate.
Problem: Look up inhibition at 15 min, 10 µM of Cc1ncn(-c2ccc(Nc3nccc(-c4cccc(N5CCOCC5)c4)n3)cc2)n1 and report it.
Solution: < 50%

---

tested on: c-jun phosphorylation in INS-1 β-pancreatic cells; assay type: cell-based, rat; details: read-out: cell-based IC50; inhibition of c-jun phosphorylation
QUANTITY NAME: IC50

Problem: Look up IC50 of Fc1cc(-c2cc[nH]/c(=N/c3ccc(-n4cnc(N5CCOCC5)n4)cc3)n2)cc(N2CCOCC2)c1 and report it.
Solution: ~50 nM

---

Biological target: CYP1A2 (Homo sapiens)
Sequence (P05177 1-516): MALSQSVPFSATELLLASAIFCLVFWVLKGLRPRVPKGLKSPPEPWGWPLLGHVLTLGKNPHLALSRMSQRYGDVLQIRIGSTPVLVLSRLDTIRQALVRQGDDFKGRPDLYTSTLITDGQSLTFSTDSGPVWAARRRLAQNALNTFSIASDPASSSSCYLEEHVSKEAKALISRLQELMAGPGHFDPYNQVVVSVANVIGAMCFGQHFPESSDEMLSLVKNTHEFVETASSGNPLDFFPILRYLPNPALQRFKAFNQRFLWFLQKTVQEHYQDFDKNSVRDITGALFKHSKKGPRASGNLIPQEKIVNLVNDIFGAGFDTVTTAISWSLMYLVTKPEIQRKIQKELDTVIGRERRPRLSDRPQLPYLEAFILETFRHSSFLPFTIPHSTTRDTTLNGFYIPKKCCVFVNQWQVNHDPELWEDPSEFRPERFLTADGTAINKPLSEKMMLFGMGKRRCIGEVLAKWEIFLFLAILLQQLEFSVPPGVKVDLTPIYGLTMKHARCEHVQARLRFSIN
Experiment: P450 inhibition, phenaceten demethylation
Type: in vitro ADME
Conditions: probe phenaceten
QUANTITY NAME: inhibition at 15 min, 10 µM

[
  {
    "COMPOUND STRING": "N#Cc1cc(-c2ccnc(Nc3ccc(-n4cnc(-c5ccccn5)n4)cc3)n2)cc(N2CCOCC2)c1",
    "TARGET OR TEST SYSTEM": "CYP1A2 (Homo sapiens)",
    "ASSAY RESULT": "≤ 33%"
  }
]

Hi team, please reply with inhibition at 15 min, 10 µM for each item in this list.
1. Cn1nnc(-c2ccc(Nc3nccc(-c4cc(C#N)cc(N5CCOCC5)c4)n3)cc2)n1
2. Cc1ncn(-c2ccc(Nc3nccc(-c4cccc(N5CCOCC5)c4)n3)cc2)n1
3. Fc1cc(-c2cc[nH]/c(=N/c3ccc(-n4cnc(N5CCOCC5)n4)cc3)n2)cc(N2CCOCC2)c1

Solution:
≤ 15%
< 50%
70 to 90%
